Target: FAAH (Homo sapiens (Human))
Sequence (O00519 whole entry): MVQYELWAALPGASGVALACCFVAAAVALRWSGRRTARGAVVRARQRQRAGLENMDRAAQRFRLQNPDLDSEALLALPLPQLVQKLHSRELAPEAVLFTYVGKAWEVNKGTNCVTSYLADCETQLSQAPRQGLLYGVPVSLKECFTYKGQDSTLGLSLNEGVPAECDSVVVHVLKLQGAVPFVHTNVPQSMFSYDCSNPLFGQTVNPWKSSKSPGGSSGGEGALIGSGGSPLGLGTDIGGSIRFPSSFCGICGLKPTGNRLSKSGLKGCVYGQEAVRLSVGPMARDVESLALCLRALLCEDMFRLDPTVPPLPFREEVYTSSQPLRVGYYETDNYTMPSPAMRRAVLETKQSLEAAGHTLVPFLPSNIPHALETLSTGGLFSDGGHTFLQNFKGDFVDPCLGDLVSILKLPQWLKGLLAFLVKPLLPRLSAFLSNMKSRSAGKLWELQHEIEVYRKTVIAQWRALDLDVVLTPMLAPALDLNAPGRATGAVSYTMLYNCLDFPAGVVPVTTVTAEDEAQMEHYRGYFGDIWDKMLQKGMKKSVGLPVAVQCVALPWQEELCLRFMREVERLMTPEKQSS
Experiment: In vitro competitive activity-based protein profiling, human proteomes (prefrontal cortex or PC3 cell membrane fractions)
Type: biochemical
Settings: 1 μM, human proteome; read-out: FAAH % inh. 1 μM (human)
Recorded inhibition at 1 µM values for a group of molecules are listed next.

molecule	measured_property	reading
CS(=O)(=O)Nc1ccn(C(=O)N2CC3CN(Cc4ccc(C(F)(F)F)cc4NCCCC(=O)O)CC3C2)n1 (stereo not shown) [Example 78]	inhibition at 1 µM	0 to 25%
C[C@@H]1CN(C(=O)n2ccc(NS(C)(=O)=O)n2)CCN1Cc1ccc(Cl)c(N2CC3COCC3C2)c1 (stereo partly shown) [Example 133]	inhibition at 1 µM	0 to 25%
CS(=O)(=O)Nc1ccn(C(=O)N2CCN(Cc3ccc(C(F)(F)F)c(N4CC[C@@H](F)C4)c3)CC2)n1 [Example 120]	inhibition at 1 µM	0 to 25%
CS(=O)(=O)Nc1ccn(C(=O)N2CCN(Cc3ccncc3N3CCCC3)CC2)n1 [Example 82]	inhibition at 1 µM	0 to 25%
CS(=O)(=O)Nc1ccn(C(=O)N2CCC3(CCN(Cc4ccccc4Cl)C3)CC2)n1 [Example 162]	inhibition at 1 µM	0 to 25%

The reported value for CS(=O)(=O)Nc1ccn(C(=O)N2CCN(Cc3ccc(C(F)(F)F)c(-c4nnco4)c3)CC2)n1 [Example 116] in terms of inhibition at 1 µM is 0 to 25%

The reported value for CN(Cc1ccc(C(F)(F)F)cc1N1CCC(C(=O)O)C1)C1(C)CCN(C(=O)n2ccc(NS(C)(=O)=O)n2)CC1 (stereo not shown) [Example 97] in terms of inhibition at 1 µM is 0 to 25%

Cited source for all entries: patent US11149037B2
